# Kd annotations
- measured_on: mfPRLR.mmh (monomeric macaca fascicularis PRLR)
- Sequence (as listed by the source): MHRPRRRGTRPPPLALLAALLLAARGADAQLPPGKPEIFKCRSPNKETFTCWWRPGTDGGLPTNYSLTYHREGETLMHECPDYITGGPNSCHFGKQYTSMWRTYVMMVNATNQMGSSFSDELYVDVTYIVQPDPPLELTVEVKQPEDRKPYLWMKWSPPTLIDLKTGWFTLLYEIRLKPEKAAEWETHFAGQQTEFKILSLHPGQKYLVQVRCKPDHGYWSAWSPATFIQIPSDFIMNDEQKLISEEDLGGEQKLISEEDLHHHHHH
- experiment_notes: Surface plasmon resonance (Biacore T200), mAb-capture format
- Assay type: binding
- setup_conditions: 37° C., antibody-capture format, analyte mfPRLR.mmh
Provide the reading as a plain figure in nM.

INSERT INTO results (molecule, assay_metric, measured_number) VALUES
  ('H1H6960N: human IgG1 Fc form of H2M6960N; anti-PRLR; HCVR/LCVR SEQ ID NOs 322/330 (antibody, V domains shown, human IgG1 Fc) VH: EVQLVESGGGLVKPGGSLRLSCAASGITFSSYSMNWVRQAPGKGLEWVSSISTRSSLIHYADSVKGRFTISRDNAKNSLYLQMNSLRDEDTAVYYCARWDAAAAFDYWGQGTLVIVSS VL: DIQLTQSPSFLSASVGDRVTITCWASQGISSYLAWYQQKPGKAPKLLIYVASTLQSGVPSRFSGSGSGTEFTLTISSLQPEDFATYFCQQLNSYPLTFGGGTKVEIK', 'Kd', 14.9);

Please turn your attention to the following entry.
# lookup: Kd of H1H6958N2: human IgG1 Fc form of H2M6958N2; anti-PRLR, receptor blocking; HCVR/LCVR SEQ ID NOs 290/298 (antibody, V domains shown, human IgG1 Fc) VH: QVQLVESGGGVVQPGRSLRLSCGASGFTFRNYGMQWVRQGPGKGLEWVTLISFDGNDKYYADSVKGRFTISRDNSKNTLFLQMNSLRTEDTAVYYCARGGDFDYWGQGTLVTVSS VL: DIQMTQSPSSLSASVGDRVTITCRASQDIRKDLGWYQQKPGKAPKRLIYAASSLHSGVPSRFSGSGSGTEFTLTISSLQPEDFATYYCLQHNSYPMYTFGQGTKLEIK
4.08
